Value source: patent US9540362B2

Items are presented alongside their recorded log10 EC50.
target: human sphingosine-1-phosphate 1 receptor (S1P1 receptor) (Homo sapiens, UniProt P21453); assay: Ca2+ inducing ability using CHO cells overexpressing human S1P1 receptor (Calcium 5 assay kit); conditions: CHO cells overexpressing human S1P1, calcium RFU; S1P 1 μM = 100%
Sequence (P21453 whole entry): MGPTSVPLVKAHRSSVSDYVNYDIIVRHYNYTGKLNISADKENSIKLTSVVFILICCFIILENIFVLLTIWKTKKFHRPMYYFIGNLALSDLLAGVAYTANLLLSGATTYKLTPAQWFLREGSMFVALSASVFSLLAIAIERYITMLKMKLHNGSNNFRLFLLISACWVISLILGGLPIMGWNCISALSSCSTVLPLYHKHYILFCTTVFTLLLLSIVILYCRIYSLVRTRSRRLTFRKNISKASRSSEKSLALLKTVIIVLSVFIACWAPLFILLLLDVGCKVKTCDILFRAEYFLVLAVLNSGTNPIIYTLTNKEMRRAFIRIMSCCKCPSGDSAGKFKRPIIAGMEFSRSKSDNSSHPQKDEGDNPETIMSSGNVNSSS
Counter-ions that a name gives are not always drawn.
Each number you see is log10 of EC50, and the unit inside the log is nM.

Sample answers from the record:
| COMPOUND | QUANTITY | READOUT NUMBER |
| --- | --- | --- |
| CC(C)n1nc(Cl)c2cc(COc3ccc4c(c3)CCC(CN3CCCC(F)(C(=O)O)C3)=C4Cl)ccc21 (centres unmarked) | log10 EC50 | 1.15 |
| CC(C)n1nc(Cl)c2cc(COc3ccc4c(c3)CCC(CN3CCC(C(=O)O)CC3)=C4Cl)ccc21 | log10 EC50 | 1.04 |
| CC1=C(CN2CCC(C(=O)O)CC2)CCc2cc(OCc3ccc4c(c3)c(Cl)nn4C(C)C)ccc21 | log10 EC50 | 1.28 |
| Cc1cc(C(C)CC(=O)O)ccc1-c1noc(-c2ccc3c(c2)c(Cl)nn3C(C)C)n1 (centres unmarked) [Example 129, trifluoroacetate] | log10 EC50 | 1.70 |
| CC(C)n1nc(Cl)c2cc(COc3ccc4c(c3)CCC(CN3CCCC(C(=O)O)C3)=C4Cl)ccc21 (centres unmarked) | log10 EC50 | 1.43 |
| Cc1cc(CN2CC(C(=O)O)C2)ccc1-c1noc(-c2ccc3c(c2)c(Cl)cn3C(C)C)n1 | log10 EC50 | 1.36 |
| Cc1c(-c2noc(-c3ccc4c(c3)c(C)nn4C(C)C)n2)ccc2c1CCN(CC(=O)O)C2 [Example 117, trifluoroacetate] | log10 EC50 | 0.48 |
| CC(C)n1ccc2cc(-c3nc(-c4ccc(CN5CC(C(=O)O)C5)cc4)no3)ccc21 | log10 EC50 | 1.40 |

For reference, reported log10 EC50 for CC1=C(CN(C)CC(=O)O)CCc2cc(OCc3ccc4c(c3)c(Cl)nn4C(C)C)ccc21 stands at 0.95

For reference, reported log10 EC50 for CC(C)n1nc(Cl)c2cc(COc3ccc4c(c3)CCC(CN3CCC(C(=O)O)C3)=C4Cl)ccc21 (centres unmarked) stands at 0.90

For reference, reported log10 EC50 for CC(C)n1nc(Cl)c2cc(COc3ccc4c(c3)CCC(CN3CCC(F)(C(=O)O)C3)=C4Cl)ccc21 (centres unmarked) stands at 0.48

* * *

molecular target: human sphingosine-1-phosphate 1 receptor (S1P1 receptor) (Homo sapiens, UniProt P21453); assay: Ca2+ inducing ability using CHO cells overexpressing human S1P1 receptor (Calcium 5 assay kit); settings: CHO cells overexpressing human S1P1, calcium RFU; S1P 1 μM = 100%
Counter-ions that a name gives are not always drawn.
Field: class. Source value: EC50. Ranges: bucket A: < 0.01 µM; bucket B: ≥ 0.01 µM and < 0.02 µM; bucket C: ≥ 0.02 µM

In: State the class of the molecule shown: CC1=C(CN2CC(C(=O)O)C2)CCc2cc(OCc3ccc4c(c3)c(Cl)nn4C(C)C)ccc21
Out: bucket A

In: State the class of the molecule shown: CC(C)n1nc(Cl)c2cc(COc3ccc4cc(CN5CC(C(=O)O)C5)ccc4c3)ccc21
Out: bucket A

In: State the class of the molecule shown: Cc1c(-c2noc(-c3ccc4nn(C(C)C)cc4c3)n2)ccc2c1CCN(CC(=O)O)C2 [Example 97, trifluoroacetate]
Out: bucket C
